# tested on: mouse TREM2 truncated stalk peptide (aa 149-163) (mouse) (UniProt Q99NH8)
# experimental details: ELISA on biotinylated peptide captured by streptavidin; A450 normalised to isotype control
Reported fold over background (A450) values are given for each entry in this list.
Answer with a number only, understood to be in fold.

Worked examples, 2 binders total:
[
  {
    "binder": "CL0020107 (antibody, V domains shown) VH: QVQLQQPGAELVKPGASVKMSCRASGYTFTNYWISWVKQRPGQGLEWIGDIYPHSTSTNYNERFRSKATLTVDKSSTTAYMQLSSLTSEDSAVYYCAREGFGISAWGQGTTLTVSS VL: QIVLTQSPAIMSASPGEKVTITCSATSSVSYMHWFQQKPGTSPKLWIYSTSNLASGVPARFSGSGSGTSHSLTISRMEAEDAATYYCQQRSSYPLTFGSGTKLELK",
    "measurement units": "fold",
    "endpoint value": 1.6
  },
  {
    "binder": "CL0020103 (antibody, V domains shown) VH: EVQLQQSGPELVKPGASVKISCKTSGYTFTEYTMHWVKESHGKSLEWIGGINPNKGGSSYNQKFKGKATLTVDKSSSTAYMDLRRLTSEDSAVYYCARGGYEYYALDYWGQGTSVTVSS VL: DIVMSQSPSSLTVSVGERVTMSCKSSQSLLYSRNQKNYLAWYQQKPGQSPKLLIYWASTRESGVPDRFTGSGSGTDFSLTISSVKAEDLAVYYCQQYYSYPPTFGGGTKLEIK",
    "measurement units": "fold",
    "endpoint value": 1.8
  }
]

Read the next record carefully.
binder CL0020162 (antibody, V domains shown) VH: QIQLVQSGPELKKPGESLKISCKASGYTFTDYAMQWVKQAPEKGLQYMGWINTQTGKPTYADDFKERFVFSLETSATTAYLQINNLKNEDMATYFCVRSYNNYENWFAYWGQGTLVTVSS VL: DIVMTQSPSSLAVSAGETVTINCKSSQSLLYSGNQKNYLAWYQQKPGQSPKVLIYWASTRQFGVPDRFIGSGSGTDFTLTISSVQAEDLAIYYCQQYYNSPITFGSGTKLEIK , fold over background (A450) observed: 1.4

Where these numbers come from: patent US20220119522A1
